Recorded pIC50, one value per entry.
- TARGET OR TEST SYSTEM: Gelatinase (MMP-2) (Homo sapiens)
- Sequence (P08253 110-660): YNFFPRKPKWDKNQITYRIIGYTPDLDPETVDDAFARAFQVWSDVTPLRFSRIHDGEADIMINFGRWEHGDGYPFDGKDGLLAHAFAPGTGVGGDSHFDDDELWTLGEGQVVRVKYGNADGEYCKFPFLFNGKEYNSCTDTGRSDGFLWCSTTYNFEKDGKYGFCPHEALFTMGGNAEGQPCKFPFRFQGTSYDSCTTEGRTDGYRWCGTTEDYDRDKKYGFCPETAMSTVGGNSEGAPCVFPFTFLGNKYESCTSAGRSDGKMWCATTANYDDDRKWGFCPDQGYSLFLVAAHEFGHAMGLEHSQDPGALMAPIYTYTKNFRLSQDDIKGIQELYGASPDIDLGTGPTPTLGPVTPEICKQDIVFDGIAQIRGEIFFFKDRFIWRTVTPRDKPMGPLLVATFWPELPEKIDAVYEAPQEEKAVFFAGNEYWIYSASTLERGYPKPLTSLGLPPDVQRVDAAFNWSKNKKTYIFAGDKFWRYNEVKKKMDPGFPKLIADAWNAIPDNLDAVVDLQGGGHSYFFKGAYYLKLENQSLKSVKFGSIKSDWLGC
- RUN DESCRIPTION: Gelatinase (MMP-2) inhibitory activity, fluorogenic peptide substrate cleavage
- Assay type: biochemical
- CONDITION PARAMETERS: read-out: MMP02 IC50
pIC50: −log10 of the molar value.
ASSAY METRIC: pIC50

* CC(C)CCn1ccc2cc(C(=O)c3ccc(Cl)c(S(N)(=O)=O)c3)ccc21 | 4.57
* CCc1n[nH]c2cc(C(=O)c3ccc(Cl)c(S(N)(=O)=O)c3)ccc12 | 6.57
* NS(=O)(=O)c1cc(C(=O)c2ccc(C(=O)NCCc3ccccn3)cc2)ccc1Cl | 4.83
* Cc1cccc(-c2ccc(C(=O)c3ccc(Cl)c(S(N)(=O)=O)c3)cc2)c1 [Example 77] | 4.54
* CC1CCCN(c2ccc(C(=O)c3ccc(Cl)c(S(N)(=O)=O)c3)cc2)C1 (centres unmarked) | 5.87
* CCN1C(=O)CCC2=C1Cc1cc(C(=O)c3ccc(Cl)c(S(N)(=O)=O)c3)ccc12 | 5.54
* NS(=O)(=O)c1cc(C(=O)c2ccc(C3CCCCC3)cc2)ccc1Cl | 4.88
* NS(=O)(=O)c1cc(C(=O)c2ccc3c(c2)CCN3)ccc1Cl | 4.92
* NS(=O)(=O)c1cc(C(=O)c2ccc(C(=O)Nc3ccccc3)cc2)ccc1Cl | 5.60
* NS(=O)(=O)c1cc(C(=O)c2ccc3c(-c4ccc(C(=O)N5CCOCC5)cc4)c[nH]c3c2)ccc1Cl | 4.80
* NS(=O)(=O)c1cccc(C(=O)c2ccc3cc[nH]c3c2)c1 | 6.62
* NS(=O)(=O)c1cc(C(=O)c2ccc3cc[nH]c3c2)ccc1F | 6.41
* COc1ccc(C(=O)c2cccc(S(N)(=O)=O)c2)cc1 [Example 1, 3-(4-Methoxy-benzoyl)-benzenesulfonamide] | 5.72
* NS(=O)(=O)c1cc(C(=O)c2ccc(-c3cccc([N+](=O)[O-])c3)cc2)ccc1Cl | 5.46
* Cc1cc(Br)ccc1C(=O)c1ccc(Cl)c(S(N)(=O)=O)c1 | 6.82
* NS(=O)(=O)c1cc(C(=O)c2ccc(O)cc2)ccc1Cl [Example 55] | 4.59
